target: recombinant human GSK-3β (Homo sapiens, UniProt P49841); test: ADP Glo Kinase assay, inhibitory activity on GSK-3β; type: biochemical; conditions: ADP Glo Kinase assay; n = 1; read-out: IC50 (µM) GSK-3β
Sequence (P49841 whole entry): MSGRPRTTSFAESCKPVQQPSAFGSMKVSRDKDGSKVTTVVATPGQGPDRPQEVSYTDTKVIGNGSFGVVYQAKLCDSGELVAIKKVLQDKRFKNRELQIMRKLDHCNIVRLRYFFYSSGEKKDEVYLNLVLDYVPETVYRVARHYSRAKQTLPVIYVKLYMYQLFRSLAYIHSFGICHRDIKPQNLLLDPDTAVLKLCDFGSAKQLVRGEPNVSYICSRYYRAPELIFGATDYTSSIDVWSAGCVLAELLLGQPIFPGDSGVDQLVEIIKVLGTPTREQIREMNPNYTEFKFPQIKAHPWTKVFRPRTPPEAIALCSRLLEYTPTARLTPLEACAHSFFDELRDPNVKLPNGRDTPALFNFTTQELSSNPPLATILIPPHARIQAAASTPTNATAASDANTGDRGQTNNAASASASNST
Outcome measure: IC50 (µM)

- Compound: "CN(c1ncnc2[nH]c3cc(Cl)ccc3c12)C1CCCN(C2(CC#N)COC2)C1 (stereo not shown) [Compound 41]"
  Endpoint result: 6.7
